These entries and their values trace back to patent US20250034594A1.

test system: mammalian cells; experiment: Arrayed SSAP library screening, cell viability by live cell counts via flow cytometry; format: cell-based
test readout: Cell Viability (Average, two targets)

Indicate the recorded Cell Viability (Average, two targets) value for this molecule: SSAP_4: SEQ ID NO: 166 (protein, Lambda) MSTALATLAGKLAERVGMDSVDPQELITTLRQTAFKGDASDAQFIALLIVANQYGLNPWTKEIYAFPDKQNGIVPVVGVDGWSRIINENQQFDGMDFEQDNESCTCRIYRKDRNHPICVTEWMDECRREPFKTREGREITGPWQSHPKRMLRHKAMIQCARLAFGFAGIYDKDEAERIVENTAYTAERQPERDITPVNDETMQEINTLLIALDKTWDDDLLPLCSQIFRRDIRASSELTQAEAVKALGFLKQKAAEQKVAA 1.192
